- DETAILS: 298.15 K; 65000 kPa; Liquid; Vibrating tube method
Numbers after ± are expanded uncertainties.
Entries annotated with measured mass density

| MOLECULE SMILES | RESULT |
| --- | --- |
| Cc1ccsc1 | 1059.43 ± 0.55 kg/m3 |
| c1ccsc1 | 1104.85 ± 0.59 kg/m3 |
| Cc1cccs1 | 1059.07 ± 0.59 kg/m3 |

Attention now turns to another entry.
Fill in: mass density of `Cc1ccc(C)s1` is ___
1023.8 ± 0.51 kg/m3

Just for reference, the NIST ThermoML archive (doi:10.1016/j.jct.2016.08.005) is where these values come from.
